compounds and their reported Dmax
Target: KRAS-G12D (Homo sapiens, UniProt P01116, G12D)
Construct: endogenous in cells; host or cells: A-427 (ATCC), AGS, AsPc-1, Panc 04.03
Sequence (P01116 1-188 isoform P01116-2 G12D): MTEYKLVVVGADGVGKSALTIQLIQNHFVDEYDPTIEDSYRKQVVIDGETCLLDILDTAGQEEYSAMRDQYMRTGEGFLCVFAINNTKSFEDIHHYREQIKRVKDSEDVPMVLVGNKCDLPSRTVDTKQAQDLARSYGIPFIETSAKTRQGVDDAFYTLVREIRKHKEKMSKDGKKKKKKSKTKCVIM
Experiment: KRAS-G12D degradation assay (Western Blot), A-427 cells
Assay type: cell-based
Details: A-427; A427 cells, 24 h; class symbols

compound	measured on	Dmax
C#Cc1c(F)ccc2cc(O)cc(-c3ncc4c(N5CC6CCC(C5)N6)nc(OCC5(CN6CCN(CCCC7CCN(C(=O)c8ccc(OC)c(N9CCC(=O)NC9=O)c8)CC7)CC6)CC5)nc4c3F)c12 [Example 8]	KRAS-G12D (Homo sapiens, UniProt P01116, G12D)	50 to 80%
C#Cc1c(F)ccc2cc(O)cc(-c3ncc4c(N5CC6CCC(C5)N6)nc(OCC5(CN6CCN(CC7CCC8(CC7)CCN(C(=O)c7ccc(Cl)c(N9CCC(=O)N(C)C9=O)c7)CC8)CC6)CC5)nc4c3F)c12 [Example 17]	KRAS-G12D (Homo sapiens, UniProt P01116, G12D)	< 30%

**Query** Bench note: what Dmax did CCc1cccc2cc(O)cc(-c3ncc4c(N5CC6CCC(C5)N6)nc(NCC5(CN6CCN(CC7CCC8(CC7)CCN(C(=O)c7ccc(Cl)c(N9CCC(=O)NC9=O)c7)CC8)CC6)CC5)nc4c3F)c12 [Example 47] show?
**Result** 50 to 80%

**Query** Bench note: what Dmax did C#Cc1c(F)ccc2cc(O)cc(-c3ncc4c(N5CC6CCC(C5)N6)nc(OCC5(CN6CCC(COCC7CCN(C(=O)c8ccc(Cl)c(N9CCC(=O)NC9=O)c8)CC7)CC6)CC5)nc4c3F)c12 [Example 13] show?
**Result** 50 to 80%

**Query** Bench note: what Dmax did Cc1ccc2[nH]ncc2c1-c1ncc2c(N3CC4CCC(C3)N4)nc(OCC3(CN4CCN(CC5CCC6(CC5)CCN(C(=O)c5ccc(Cl)c(N7CCC(=O)NC7=O)c5)CC6)CC4)CC3)nc2c1F [Example 16] show?
**Result** 30 to 50%

----------
Tested on: KRAS G12D mutant human gastric cancer cell AGS
Experiment: 3D cell proliferation inhibition assay, AGS
Type: cell-based
Details: 168 h, 7 days, CTG, class symbols
pIC50: −log10 of the molar value.
endpoint label: pIC50

Examples with answers:
compound	endpoint label	reported measurement
C#Cc1c(F)ccc2cc(O)cc(-c3ncc4c(N5CC6CCC(C5)N6)nc(OCC(C)(C)CN5CCN(CCCC6CCN(C(=O)c7ccc(Cl)c(N8CCC(=O)NC8=O)c7)CC6)CC5)nc4c3F)c12 [Example 23]	pIC50	7.00 to 7.30
CCc1cccc2cc(O)cc(-c3ncc4c(N5CC6CCC(C5)N6)nc(OCC5(CN6CCN(CC7CCC8(CC7)CCN(C(=O)c7ccc(Cl)c(N9CCC(=O)NC9=O)c7)CC8)CC6)CC5)nc4c3F)c12 [Example 50]	pIC50	≥ 7.30
C#Cc1c(F)ccc2cc(O)cc(-c3ncc4c(N5CC6CCC(C5)N6)nc(OCC5(CN6CCN(CC7CCC8(CC7)CCN(C(=O)c7ccc(C)c(N9CCC(=O)NC9=O)c7)CC8)CC6)CC5)nc4c3F)c12 [Example 36]	pIC50	≥ 7.30
CCc1cccc2cc(O)cc(-c3ncc4c(N5CC6CCC(C5)N6)nc(OCC5(CN6CCN(CCCC7CCN(C(=O)c8ccc(Cl)c(N9CCC(=O)NC9=O)c8)CC7)CC6)CC5)nc4c3F)c12 [Example 19]	pIC50	≥ 7.30

**Query** Bench note: what pIC50 did CCc1cccc2cc(O)cc(-c3ncc4c(N5CC6CCC(C5)N6)nc(OCC5(CN6CCN(CC7CCC8(CC7)CCN(C(=O)c7ccc(OC)c(N9CCC(=O)NC9=O)c7)CC8)CC6)CC5)nc4c3F)c12 [Example 20] show?
**Result** ≥ 7.30

**Query** Bench note: what pIC50 did C#Cc1c(F)ccc2cc(O)cc(-c3ncc4c(N5CC6CCC(C5)N6)nc(OC[C@@H]5CCCN5CCC5CCC6(CC5)CCN(C(=O)c5ccc(Cl)c(N7CCC(=O)NC7=O)c5)CC6)nc4c3F)c12 [Example 32] show?
**Result** 5.00 to 6.00

**Query** Bench note: what pIC50 did C#Cc1c(F)ccc2cc(O)cc(-c3ncc4c(N5CC6CCC(C5)N6)nc(NCC5(CN6CCN(CC7CCC8(CC7)CCN(C(=O)c7ccc(C)c(N9CCC(=O)NC9=O)c7)CC8)CC6)CC5)nc4c3F)c12 [Example 44] show?
**Result** ≥ 7.30

**Query** Bench note: what pIC50 did C#Cc1c(F)ccc2cc(O)cc(-c3ncc4c(N5CC6CCC(C5)N6)nc(OCC5(CN6CCN(CCCC7CCC8(CC7)CCN(C(=O)c7ccc(Cl)c(N9CCC(=O)NC9=O)c7)CC8)CC6)CC5)nc4c3F)c12 [Example 7] show?
**Result** ≥ 7.30

**Query** Bench note: what pIC50 did C#Cc1cccc2cc(O)cc(-c3ncc4c(N5CC6CCC(C5)N6)nc(OCC5(CN6CCN(CC7CCC8(CC7)CCN(C(=O)c7ccc(Cl)c(N9CCC(=O)NC9=O)c7)CC8)CC6)CC5)nc4c3F)c12 [Example 57] show?
**Result** ≥ 7.30

**Query** Bench note: what pIC50 did C#Cc1c(F)ccc2cc(O)cc(-c3ncc4c(N5CC6CCC(C5)N6)nc(OCC5(CN6CCC(CN7CCC8(CC7)CCN(C(=O)c7ccc(OC)c(N9CCC(=O)NC9=O)c7)CC8)CC6)CC5)nc4c3F)c12 [Example 38] show?
**Result** ≥ 7.30

----------
compounds and their reported Dmax
Biological target: KRAS-G12D (Homo sapiens, UniProt P01116, G12D)
Construct: endogenous in cells; host or cells: A-427 (ATCC), AGS, AsPc-1, Panc 04.03
Assay: KRAS-G12D degradation assay (Western Blot), Panc 04.03 cells
Format: cell-based
Details: 24 h
The response must be a number in % with no trailing unit.

Examples with answers:
compound	output unit	Dmax
C#Cc1c(F)ccc2cc(O)cc(-c3ncc4c(N5CC6CCC(C5)N6)nc(OCC5(CN6CCN(CC7CCC8(CC7)CCN(C(=O)c7ccc(Cl)c(N9CCC(=O)NC9=O)c7)CC8)CC6)CC5)nc4c3F)c12 [Example 6]	%	99.9
C#Cc1c(F)ccc2cc(O)cc(-c3ccc4c(N5CC6CCC(C5)N6)nc(OCC5(CN6CCN(CC7CCC8(CC7)CCN(C(=O)c7ccc(OC)c(N9CCC(=O)NC9=O)c7)CC8)CC6)CC5)nc4c3F)c12 [Example 71]	%	98.8

Now consider a different compound.
**Query** Bench note: what Dmax did C#Cc1cccc2cc(O)cc(-c3ncc4c(N5CC6CCC(C5)N6)nc(OCC5(CN6CCN(CC7CCC8(CC7)CCN(C(=O)c7ccc(OC)c(N9CCC(=O)NC9=O)c7)CC8)CC6)CC5)nc4c3F)c12 [Example 82] show?
**Result** 100

----------
Target: KRAS-G12D (Homo sapiens, UniProt P01116, G12D)
Construct: endogenous in cells; host or cells: A-427 (ATCC), AGS, AsPc-1, Panc 04.03
Assay: KRAS-G12D degradation assay (Western Blot), A-427 cells
Format: cell-based
Settings: A-427; A427 cells, 24 h; numeric values
endpoint label: Dmax

Examples with answers:
compound	reported measurement
C#Cc1cccc2cc(O)cc(-c3ccc4c(N5CC6CCC(C5)N6)nc(OCC5(CN6CCN(CC7CCC8(CC7)CCN(C(=O)c7ccc(Cl)c(N9CCC(=O)NC9=O)c7)CC8)CC6)CC5)nc4c3F)c12 [Example 78]	70.2%
C#Cc1cccc2cc(O)cc(-c3ccc4c(N5CC6CCC(C5)N6)nc(OCC5(CN6CCN(CC7CCC8(CC7)CCN(C(=O)c7ccc(OC)c(N9CCC(=O)NC9=O)c7)CC8)CC6)CC5)nc4c3F)c12 [Example 76]	89.3%
C#Cc1c(F)ccc2cc(O)cc(-c3ncc4c(N5CC6CCC(C5)N6)nc(OC[C@H](C)CN5CCN(CC6CCC7(CC6)CCN(C(=O)c6ccc(OC)c(N8CCC(=O)NC8=O)c6)CC7)CC5)nc4c3F)c12 [Example 90]	95.6%
CCc1c(F)ccc2cc(O)cc(-c3ccc4c(N5CC6CCC(C5)N6)nc(OCC5(CN6CCN(CC7CCC8(CC7)CCN(C(=O)c7ccc(Cl)c(N9CCC(=O)NC9=O)c7)CC8)CC6)CC5)nc4c3F)c12 [Example 74]	77%
CCc1cccc2cc(O)cc(-c3ccc4c(N5CC6CCC(C5)N6)nc(OCC5(CN6CCN(CC7CCC8(CC7)CCN(C(=O)c7ccc(C)c(N9CCC(=O)NC9=O)c7)CC8)CC6)CC5)nc4c3F)c12 [Example 70]	87.3%

**Query** Bench note: what Dmax did CCc1c(F)ccc2cc(O)cc(-c3ccc4c(N5CC6CCC(C5)N6)nc(OCC5(CN6CCN(CC7CCC8(CC7)CCN(C(=O)c7ccc(C)c(N9CCC(=O)NC9=O)c7)CC8)CC6)CC5)nc4c3F)c12 [Example 75] show?
**Result** 83.8%

**Query** Bench note: what Dmax did C#Cc1cccc2cc(O)cc(-c3ncc4c(N5CC6CCC(C5)N6)nc(OCC5(CN6CCN(CC7CCC8(CC7)CCN(C(=O)c7ccc(OC)c(N9CCC(=O)NC9=O)c7)CC8)CC6)CC5)nc4c3F)c12 [Example 82] show?
**Result** 99%

**Query** Bench note: what Dmax did C#Cc1c(F)ccc2cc(O)cc(-c3ncc4c(N5CC6CCC(C5)N6)nc(OCC(C)CN5CCN(CC6CCC7(CC6)CCN(C(=O)c6ccc(OC)c(N8CCC(=O)NC8=O)c6)CC7)CC5)nc4c3F)c12 (stereo not shown) [Example 84] show?
**Result** 86.3%

**Query** Bench note: what Dmax did C#Cc1c(F)ccc2cc(O)cc(-c3ncc4c(N5CC6CCC(C5)N6)nc(OCC5(CN6CCN(CC7CCC8(CC7)CCN(C(=O)c7ccc(CC)c(N9CCC(=O)NC9=O)c7)CC8)CC6)CC5)nc4c3F)c12 [Example 243] show?
**Result** 92.9%

**Query** Bench note: what Dmax did C#Cc1c(F)ccc2cc(O)cc(-c3ccc4c(N5CC6CCC(C5)N6)nc(OCC5(CN6CCN(CC7CCC8(CC7)CCN(C(=O)c7ccc(Cl)c(N9CCC(=O)NC9=O)c7)CC8)CC6)CC5)nc4c3F)c12 [Example 72] show?
**Result** 82.6%

**Query** Bench note: what Dmax did CCc1c(F)ccc2cc(O)cc(-c3ccc4c(N5CC6CCC(C5)N6)nc(OCC5(CN6CCN(CC7CCC8(CC7)CCN(C(=O)c7ccc(OC)c(N9CCC(=O)NC9=O)c7)CC8)CC6)CC5)nc4c3F)c12 [Example 73] show?
**Result** 87.2%

**Query** Bench note: what Dmax did CCc1cccc2cc(O)cc(-c3ccc4c(N5CC6CCC(C5)N6)nc(OCC5(CN6CCN(CC7CCC8(CC7)CCN(C(=O)c7ccc(OC)c(N9CCC(=O)NC9=O)c7)CC8)CC6)CC5)nc4c3F)c12 [Example 83] show?
**Result** 87.2%

**Query** Bench note: what Dmax did Cc1ccc(C(=O)N2CCC3(CCC(CN4CCN(CC5(COc6nc(N7CC8CCC(C7)N8)c7cnc(-c8cc(O)cc(Cl)c8C8CC8)c(F)c7n6)CC5)CC4)CC3)CC2)cc1N1CCC(=O)NC1=O [Example 81] show?
**Result** 76.5%

Reference source for all entries: patent US20260166159A1
